Read-out: CD40, CD40 (gene 958)
assay.text: BSK_LPS_CD40: BioMAP Diversity Plus: LPS Assay for CD40 Biomarker Activity (AID 2283076)
experimental.parameters: primary human HUVEC with PBMC; actives raise or lower the signal
Calls of active or inactive are those of the source. How the source made its calls: active means hit-call score of the fitted dose curve at least 0.9, where 1 is the maximum; inactive means score below 0.9.
Result category, one only: true (active), false (inactive)

Take a look at these entries with their results.
Outcome logged for OCc1ccco1 in this assay: false

Could you please tell me the result logged for Nc1cccc2ccccc12 in this assay? false

GET /call?item= COP(=S)(OC)Oc1cc(Cl)c(Cl)cc1Cl returns the recorded outcome of this test. false

Lab log entry: O=C(Nc1ccc2[nH]ccc2c1)c1cc2cc(F)ccc2n1Cc1cccc(F)c1 — outcome as called in the assay? true

// return assay outcome for CCOP(=S)(OCC)Oc1nc(Cl)c(Cl)cc1Cl true

Continuing:
Please state the recorded outcome for this molecule: COc1cc(OC)nc(NC(=O)NS(=O)(=O)c2ncccc2C(=O)N(C)C)n1 false

Any idea what this test logged for ClCC(Cl)CCl ? false

Recorded call for O=C(O)C(Cl)(Cl)Cl ? false
